B1: CLINT1 (parent)
chain: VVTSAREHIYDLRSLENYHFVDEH

- Variants of: B1
- method.description: protein stability index of a GFP-peptide fusion (GPS, HEK-293T) (PSI 1-6); higher = more stable;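 further: lentivirally expressed fusions sorted by FACS into six bins by GFP to DsRed ratio, PSI derived from sequencing read proportions per bin multiplied by bin number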
- experimental.setup: c terminus: a fixed tail appended
test.readout: protein stability index

mut | test.readout | assay.value
N17W | protein stability index | 1.96
E7N | protein stability index | 2.64
L12W | protein stability index | 2.7
I9W | protein stability index | 2.21
R6V | protein stability index | 2.31
R13M | protein stability index | 2.9
S4R | protein stability index | 2.65
V1H | protein stability index | 3.35
V2P | protein stability index | 4.19
E23I | protein stability index | 2.54
T3H | protein stability index | 2.48
E16I | protein stability index | 2.12
S4N | protein stability index | 2.84
L12N | protein stability index | 3.78
V21N | protein stability index | 3.44
I9H | protein stability index | 3.24
V21C | protein stability index | 2.78
V21S | protein stability index | 2.96
Y10E | protein stability index | 4.17
E7G | protein stability index | 1.73
F20N | protein stability index | 3.77
V21F | protein stability index | 2.48
E7P | protein stability index | 2.44
V2T | protein stability index | 3.24
Y10R | protein stability index | 3.78
V21G | protein stability index | 3.49
H19D | protein stability index | 3.99
E7L | protein stability index | 2.3
R13K | protein stability index | 3.45
R13D | protein stability index | 3.59
D22K | protein stability index | 2.49
L15H | protein stability index | 3.58
L15E | protein stability index | 3.46
E16F | protein stability index | 2.13
E23G | protein stability index | 3.21
Y18N | protein stability index | 4.48
D22P | protein stability index | 2.58
R6M | protein stability index | 2.33
V1W | protein stability index | 2.47
R13H | protein stability index | 2.67
T3F | protein stability index | 1.98
H8Q | protein stability index | 3.16
N17C | protein stability index | 2.35
L15P | protein stability index | 3.31
F20S | protein stability index | 3.79
L15F | protein stability index | 2.4
D22Q | protein stability index | 2.59
R13L | protein stability index | 1.97
A5F | protein stability index | 2.53
H24I | protein stability index | 2.35
R6C | protein stability index | 2.91
Y10I | protein stability index | 2.32
